Molecular target: NR1/NR2B (Homo sapiens, UniProt Q05586+Q13224)
Construct: expressed in transfected cells; host or cells: Xenopus laevis oocytes
Sequence (Q13224 27-1484, species assumed, other chains not shown): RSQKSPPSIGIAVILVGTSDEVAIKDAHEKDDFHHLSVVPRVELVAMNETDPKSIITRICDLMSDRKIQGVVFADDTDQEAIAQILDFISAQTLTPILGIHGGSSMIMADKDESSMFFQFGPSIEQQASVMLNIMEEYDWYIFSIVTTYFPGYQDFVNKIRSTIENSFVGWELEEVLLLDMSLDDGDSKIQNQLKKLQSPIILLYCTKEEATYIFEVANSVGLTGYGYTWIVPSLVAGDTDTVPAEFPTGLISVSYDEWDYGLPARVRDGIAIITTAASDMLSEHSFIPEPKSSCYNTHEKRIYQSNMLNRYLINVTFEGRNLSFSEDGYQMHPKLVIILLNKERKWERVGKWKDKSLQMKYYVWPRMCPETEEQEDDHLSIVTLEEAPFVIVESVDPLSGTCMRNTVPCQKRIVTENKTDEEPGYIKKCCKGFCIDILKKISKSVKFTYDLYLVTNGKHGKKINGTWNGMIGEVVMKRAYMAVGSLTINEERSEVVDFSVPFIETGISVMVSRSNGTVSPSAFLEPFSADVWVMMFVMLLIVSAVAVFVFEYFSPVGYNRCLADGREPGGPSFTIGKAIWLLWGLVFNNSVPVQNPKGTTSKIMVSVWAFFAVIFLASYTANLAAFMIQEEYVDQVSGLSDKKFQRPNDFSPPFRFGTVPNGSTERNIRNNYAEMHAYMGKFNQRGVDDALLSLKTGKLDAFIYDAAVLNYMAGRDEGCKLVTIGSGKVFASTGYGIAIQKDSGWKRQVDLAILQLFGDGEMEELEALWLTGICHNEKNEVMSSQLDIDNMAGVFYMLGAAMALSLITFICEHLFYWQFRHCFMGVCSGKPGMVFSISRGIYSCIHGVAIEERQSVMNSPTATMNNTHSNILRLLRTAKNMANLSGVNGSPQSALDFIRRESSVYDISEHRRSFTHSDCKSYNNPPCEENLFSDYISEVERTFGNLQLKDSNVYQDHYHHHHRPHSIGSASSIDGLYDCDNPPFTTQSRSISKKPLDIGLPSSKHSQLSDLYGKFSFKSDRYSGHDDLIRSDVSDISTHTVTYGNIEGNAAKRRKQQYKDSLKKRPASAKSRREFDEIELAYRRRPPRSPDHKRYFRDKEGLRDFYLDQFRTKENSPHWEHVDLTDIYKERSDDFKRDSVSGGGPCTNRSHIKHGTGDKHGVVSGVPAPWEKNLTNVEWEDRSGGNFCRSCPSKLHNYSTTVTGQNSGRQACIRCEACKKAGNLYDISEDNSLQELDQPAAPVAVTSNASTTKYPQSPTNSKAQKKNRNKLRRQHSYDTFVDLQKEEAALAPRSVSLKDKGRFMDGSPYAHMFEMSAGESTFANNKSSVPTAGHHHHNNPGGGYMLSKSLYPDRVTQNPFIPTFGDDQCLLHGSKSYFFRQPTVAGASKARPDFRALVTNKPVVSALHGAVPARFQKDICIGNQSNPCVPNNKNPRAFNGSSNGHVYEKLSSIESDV
Assay: Two electrode voltage clamp, Xenopus laevis oocytes expressing NR1/NR2B
Assay type: cell-based
Conditions: at 100 μM; read-out: 2B percent effect at the maximum tested concentration
Protocol: In the table above, potency is expressed as fitted EC50 value to average composite concentration-effect data constructed from current responses recorded under two electrode voltage clamp from Xenopus laevis oocytes expressing either NR1/NR2A, B, C, or D, GluR1, or GluR6. No effect means less than 20% change in response amplitude at 30 μM of drug.

| Compound | activity at 100 µM (%) |
| --- | --- |
| CCc1cc(C(=O)O)c(NC(=O)c2ccc(C(C)(C)C)cc2)s1 | 100 |
| CC(C)(C)c1ccc(NC(=O)C2CC=CCC2C(=O)O)cc1 (stereo not drawn) | 83 |
| COc1ccc(OCC2c3cc(OC)c(OC)cc3CCN2C(=O)c2ccc(Cl)cc2)cc1 (stereo not drawn) | 78 |
| COC(=O)c1ccc(OCC2c3cc(OC)c(OC)cc3CCN2C(=O)c2cccc(Cl)c2)cc1 (stereo not drawn) | 68 |
| CC1CCc2c(sc(NC(=O)c3ccc(C(C)(C)C)cc3)c2C(=O)O)C1 (stereo not drawn) | 119 |
| COc1ccc(OCC2c3cc(OC)c(OC)cc3CCN2C(=O)N2CCOCC2)cc1 (stereo not drawn) | 61 |
| COc1ccc(OCC2c3cc(OC)c(OC)cc3CCN2C(=O)c2ccc(Br)cc2)cc1 (stereo not drawn) | 80 |
| COc1ccc(OCC2c3cc(OC)c(OC)cc3CCN2C(=O)c2ccncc2)cc1 (stereo not drawn) | 87 |
| COc1ccc(OCC2c3c(cc(OC)cc3OC)CCN2C(=O)c2cccc(Br)c2)cc1 (stereo not drawn) | 72 |
| COc1ccc(OCC2c3ccc(OC)cc3CCN2C(=O)c2cccc(Br)c2)cc1 (stereo not drawn) | 77 |
| COc1cc2c(cc1OC)C(COc1ccc(SC)cc1)N(C(=O)c1cccc(Cl)c1)CC2 (stereo not drawn) | 67 |
| COc1ccc(OCC2c3cc(OC)c(OC)cc3CCN2C(=O)c2cccnc2)cc1 (stereo not drawn) | 85 |
| COc1ccc(OCC2c3cc(OC)c(OC)cc3CCN2C(=O)c2ccccc2)cc1 (stereo not drawn) | 67 |
| COc1cc2c(cc1OC)C(COc1ccc(F)cc1)N(C(=O)c1cccc(F)c1)CC2 (stereo not drawn) | 61 |
| COc1ccc(OCC2c3cc(OC)c(OC)cc3CCN2C(=O)c2ccc(F)c(Cl)c2)cc1 (stereo not drawn) | 95 |
| COc1ccc(OCC2c3cc(OC)c(OC)cc3CCN2C(=O)c2cccc(C)c2)cc1 (stereo not drawn) | 94 |
| COc1ccc(OCC2c3cc(OC)c(OC)cc3CCN2C(=O)CN2CCOCC2)cc1 (stereo not drawn) | 96 |
| COc1ccc(OCC2c3cc(OC)c(OC)cc3CCN2Cc2ccccc2)cc1 (stereo not drawn) | 90 |
| Cc1sc(NC(=O)c2ccc(C(C)(C)C)cc2)c(C(=O)O)c1C | 115 |
| CCc1ccc(OCC2c3cc(OC)c(OC)cc3CCN2C(=O)c2ccccc2)cc1 (stereo not drawn) | 97 |
| COc1ccc(OCC2c3cc(OC)c(OC)cc3CCN2C(=O)c2ccno2)cc1 (stereo not drawn) | 86 |
